# measured_target: T1, human Claudin 6 (human, UniProt P56747 1-220)
# T1 construct: whole, on cells; also called CLDN6
# T1 sequence (looked up): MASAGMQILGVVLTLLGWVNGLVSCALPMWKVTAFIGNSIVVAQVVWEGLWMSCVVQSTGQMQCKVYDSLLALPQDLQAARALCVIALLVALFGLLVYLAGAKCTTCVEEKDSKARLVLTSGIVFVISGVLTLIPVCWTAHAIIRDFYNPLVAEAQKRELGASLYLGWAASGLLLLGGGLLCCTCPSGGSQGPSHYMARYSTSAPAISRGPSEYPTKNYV
# method: flow cytometry, HEK293/H_CLDN6 cells, Ab titrated from 100 nM
# Experimental: In this example, cell based binding of chimeric Abs on human CLDN6 & CLND9 over-expressing cell line were assessed using flow cytometry. Briefly, the cells were incubated with chimeric Abs (from 100 nM, 6-fold dilution, 8 points) for 60 minutes at 4° C. […] Fluorescent signal of binding was detected using Agilent. The EC50 was calculated using the GraphPad software (LaJolla, CA).
# Top MFI per entry
readout: Top MFI

{"binder": "23-B2F11 (antibody, V domains shown, Tested as chimeric antibody) VH: EVQLQQSGPELVKPGASVKISCKTSGYTFTEYTMHWVKQSHGRSLEWIGGINPNNGDTIYNQKFKGKATLTVDKSSSTAYMELRSLTSEDSAVYYCARRGGYGNFNFDYWGQGTTLTVSS VL: DIQMTQSSSSFSVSLRDRVTITCKASEDIYNRLAWYQQKPGNAPRLLISGATSLETGVPSRFSGSGSGKDYTLSITSLQTEDVATYYCQQYWSSPYTFGGGTKVEIK", "result": 117000}
{"binder": "59-H12C5 (antibody, V domains shown, Tested as chimeric antibody) VH: EVQLVESGGGLVQPGGSLKLSCAASGFTFSSHGMSWVRQTADRGLELVASINSNGGRTYYPDSMKGRFTISRDNAKNTLYLQLSSLQPEDTALYYCACYYDNTYYAMDYWGQGTSLTVSS VL: QIVLTQSPAIMSASLGERVTMTCTASSSVSSSSLHWYQQKPGSSPKLWIYTTSTLASGVPARFSGSGSGTSYSLTISSMEAEDAATYYCHQYHRSPPTFGGGTKLEIK", "result": 379000}
{"binder": "85-H10A5 (antibody, V domains shown, Tested as chimeric antibody) VH: EVQLQQSGPELVKPGASVKISCKTSGYTFTEYPMHWVKQSHEKSLEWIGGINPKNGDANSNQKFKGKATLTVDKSSSTAYMELRSLTSEDSAVYYCARGWLLLFDVWGAGTMVTVSS VL: DIQMTQSSSSFSVSLGDRVTISCKASEDIYNRLAWYQQKPGNAPRLLISGATSLETGIPSRFSGSGSGKDYTLSITTLQTEDVAAYYCQQYWSSPLTFGAGTKLELR", "result": 285000}
